tested on: HeLa Kyoto; assay: solubility in G1/S (NP-40 vs SDS abundance) (log2 ratio); higher = more soluble; settings: cell cycle stage: G1/S
Parameter threshold = 0.3. Response is fulfilled when solubility in G1/S (log2) meets or exceeds it, else not fulfilled.

Is solubility in G1/S (log2) for MEPAVSEPMRDQVARTHLTEDTPKVNADIEKVNQNQAKRCTVIGGSGFLGQHMVEQLLARGYAVNVFDIQQGFDNPQVRFFLGDLCSRQDLYPALKGVNTVFHCASPPPSSNNKELFYRVNYIGTKNVIETCKEAGVQKLILTSSASVIFEGVDIKNGTEDLPYAMKPIDYYTETKILQERAVLGANDPEKNFLTTAIRPHGIFGPRDPQLVPILIEAARNGKMKFVIGNGKNLVDFTFVENVVHGHILAAEQLSRDSTLGGKAFHITNDEPIPFWTFLSRILTGLNYEAPKYHIPYWVAYYLALLLSLLVMVISPVIQLQPTFTPMRVALAGTFHYYSCERAKKAMGYQPLVTMDDAMERTVQSFRHLRRVK [NSDHL] at or above 0.3?
not fulfilled

Is solubility in G1/S (log2) for MAERPEDLNLPNAVITRIIKEALPDGVNISKEARSAISRAASVFVLYATSCANNFAMKGKRKTLNASDVLSAMEEMEFQRFVTPLKEALEAYRREQKGKKEASEQKKKDKDKKTDSEEQDKSRDEDNDEDEERLEEEEQNEEEEVDN [POLE3] at or above 0.3?
fulfilled

Is solubility in G1/S (log2) for MEVKPPPGRPQPDSGRRRRRRGEEGHDPKEPEQLRKLFIGGLSFETTDDSLREHFEKWGTLTDCVVMRDPQTKRSRGFGFVTYSCVEEVDAAMCARPHKVDGRVVEPKRAVSREDSVKPGAHLTVKKIFVGGIKEDTEEYNLRDYFEKYGKIETIEVMEDRQSGKKRGFAFVTFDDHDTVDKIVVQKYHTINGHNCEVKKALSKQEMQSAGSQRGRGGGSGNFMGRGGNFGGGGGNFGRGGNFGGRGGYGGGGGGSRGSYGGGDGGYNGFGGDGGNYGGGPGYSSRGGYGGGGPGYGNQGGGYGGGGGYDGYNEGGNFGGGNYGGGGNYNDFGNYSGQQQSNYGPMKGGSFGGRSSGSPYGGGYGSGGGSGGYGSRRF [HNRNPA3] at or above 0.3?
not fulfilled

Next:
Is solubility in G1/S (log2) for MAVDITLLFRASVKTVKTRNKALGVAVGGGVDGSRDELFRRSPRPKGDFSSRAREVISHIGKLRDFLLEHRKDYINAYSHTMSEYGRMTDTERDQIDQDAQIFMRTCSEAIQQLRTEAHKEIHSQQVKEHRTAVLDFIEDYLKRVCKLYSEQRAIRVKRVVDKKRLSKLEPEPNTKTRESTSSEKVSQSPSKDSEENPATEERPEKILAETQPELGTWGDGKGEDELSPEEIQMFEQENQRLIGEMNSLFDEVRQIEGRVVEISRLQEIFTEKVLQQEAEIDSIHQLVVGATENIKEGNEDIREAIKNNAGFRVWILFFLVMCSFSLLFLDWYDS [STX18] at or above 0.3?
not fulfilled

----------
system: HeLa Kyoto; assay: solubility in G1/S (NP-40 vs SDS abundance) (log2 ratio); higher = more soluble; settings: cell cycle stage: G1/S;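 further: HeLa Kyoto cells arrested at G1/S by double thymidine block, proteins quantified by TMT10plex mass spectrometry in mild NP-40 versus SDS extracts, three biological replicates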
Parameter threshold = -0.08. Response is true when solubility in G1/S (log2) meets or exceeds it, else false.

Is solubility in G1/S (log2) for MAEPVQEELSVLAAIFCRPHEWEVLSRSETDGTVFRIHTKAEGFMDVDIPLELVFHLPVNYPSCLPGISINSEQLTRAQCVTVKENLLEQAESLLSEPMVHELVLWIQQNLRHILSQPETGSGSEKCTFSTSTTMDDGLWITLLHLDHMRAKTKYVKIVEKWASDLRLTGRLMFMGKIILILLQGDRNNLKEYLILQKTSKVDVDSSGKKCKEKMISVLFETKVQTEHKRFLAFEVKEYSALDELQKEFETAGLKKLFSEFVLALVK [RWDD3] at or above -0.08?
true

Is solubility in G1/S (log2) for MELSAVGERVFAAEALLKRRIRKGRMEYLVKWKGWSQKYSTWEPEENILDARLLAAFEEREREMELYGPKKRGPKPKTFLLKAQAKAKAKTYEFRSDSARGIRIPYPGRSPQDLASTSRAREGLRNMGLSPPASSTSTSSTCRAEAPRDRDRDRDRDRERDRERERERERERERERERERGTSRVDDKPSSPGDSSKKRGPKPRKELPDPSQRPLGEPSAGLGEYLKGRKLDDTPSGAGKFPAGHSVIQLARRQDSDLVQCGVTSPSSAEATGKLAVDTFPARVIKHRAAFLEAKGQGALDPNGTRVRHGSGPPSSGGGLYRDMGAQGGRPSLIARIPVARILGDPEEESWSPSLTNLEKVVVTDVTSNFLTVTIKESNTDQGFFKEKR [CBX8] at or above -0.08?
false

Is solubility in G1/S (log2) for MAGNFWQSSHYLQWILDKQDLLKERQKDLKFLSEEEYWKLQIFFTNVIQALGEHLKLRQQVIATATVYFKRFYARYSLKSIDPVLMAPTCVFLASKVEEFGVVSNTRLIAAATSVLKTRFSYAFPKEFPYRMNHILECEFYLLELMDCCLIVYHPYRPLLQYVQDMGQEDMLLPLAWRIVNDTYRTDLCLLYPPFMIALACLHVACVVQQKDARQWFAELSVDMEKILEIIRVILKLYEQWKNFDERKEMATILSKMPKPKPPPNSEGEQGPNGSQNSSYSQS [CCNC] at or above -0.08?
false

Is solubility in G1/S (log2) for MSGDTCLCPASGAKPKLSGFKGGGLGNKYVQLNVGGSLYYTTVRALTRHDTMLKAMFSGRMEVLTDKEGWILIDRCGKHFGTILNYLRDDTITLPQNRQEIKELMAEAKYYLIQGLVNMCQSALQDKKDSYQPVCNIPIITSLKEEERLIESSTKPVVKLLYNRSNNKYSYTSNSDDHLLKNIELFDKLSLRFNGRVLFIKDVIGDEICCWSFYGQGRKLAEVCCTSIVYATEKKQTKVEFPEARIYEETLNVLLYETPRVPDNSLLEATSRSRSQASPSEDEETFELRDRVRRIHVKRYSTYDDRQLGHQSTHRD [TNFAIP1] at or above -0.08?
false

Recorded values, source the supplement of paper PMC5998384.
